- Tested on: M14
- Procedure details: NCI 60 cell line panel screen (SRB)
- Type: cell-based, human
- Assay context: Melanoma, M14
Reported Log10GI50 by item:
Give your answer as a number; write no unit.

>>> df
                                   compound  target_system  endpoint_label  recorded_result
0  CC1CCC2C(C)C(CC(CO)CC3OC4OC5(C)CCC6C(C)CCC(C3C)C46OO5)OC3OC4(C)CCC1C32OO4 (stereo not drawn)            M14       Log10GI50            −5.87

# input Fill blank: measured Log10GI50 of the compound CC1CCC2C(C)C(CC(COC(=O)c3cc[n+]([O-])cc3)CC3OC4OC5(C)CCC6C(C)CCC(C3C)C46OO5)OC3OC4(C)CCC1C32OO4 (stereo not drawn) is ____.
# output −5.81

# input Fill blank: measured Log10GI50 of the compound CC1CCC2C(C)C(CC(O)(CO)CC3OC4OC5(C)CCC6C(C)CCC(C3C)C46OO5)OC3OC4(C)CCC1C32OO4 (stereo not drawn) is ____.
# output −4.59

###

- Tested on: SNB-19
- Procedure details: NCI 60 cell line panel screen (SRB)
- Type: cell-based, human
- Assay context: CNS Cancer, SNB-19
Reported Log10GI50 by item:
Give your answer as a number; write no unit.

Recorded results for 2 molecules are shown here.
Molecule	Recorded result
CC1CCC2C(C)C(CC(COC(=O)c3cc[n+]([O-])cc3)CC3OC4OC5(C)CCC6C(C)CCC(C3C)C46OO5)OC3OC4(C)CCC1C32OO4 (stereo not drawn)	−5.08
C[C@@H]1CC[C@H]2[C@@H](C)C(CC(O)(CC3OC4O[C@]5(C)CC[C@H]6[C@H](C)CC[C@@H]([C@H]3C)C46OO5)c3ccc(C(=O)O)cc3)OC3O[C@]4(C)CCC1C32OO4 (stereo partly drawn) [Compound 11b]	−6.53

As a next step, examine the molecule that follows.
# input Fill blank: measured Log10GI50 of the molecule CC1CCC2C(C)C(CC(O)(CC3OC4OC5(C)CCC6C(C)CCC(C3C)C46OO5)CS(=O)(=O)c3ccc(C(=O)O)cc3)OC3OC4(C)CCC1C32OO4 (stereo not drawn) [Compound 10c] is ____.
# output −6.72

###

- System: T-47D
- Procedure details: NCI 60 cell line panel screen (SRB)
- Assay type: cell-based, human
- Assay context: T-47D (Breast Cancer); TGI: PG=0
Reported Log10TGI50 by item:
Field: numeric (log10M). Do not append units.

Compound	Endpoint label	Recorded result
CC1CCC2C(C)C(CC(COC(=O)c3cc[n+]([O-])cc3)CC3OC4OC5(C)CCC6C(C)CCC(C3C)C46OO5)OC3OC4(C)CCC1C32OO4 (stereo not shown)	Log10TGI50	−5.36
CC1CCC2C(C)C(CC(CO)CC3OC4OC5(C)CCC6C(C)CCC(C3C)C46OO5)OC3OC4(C)CCC1C32OO4 (stereo not shown)	Log10TGI50	−4.73
CC1CCC2C(C)C(CC(O)(CO)CC3OC4OC5(C)CCC6C(C)CCC(C3C)C46OO5)OC3OC4(C)CCC1C32OO4 (stereo not shown)	Log10TGI50	−4.48

# input Fill blank: measured Log10TGI50 of the compound CC1CCC2C(C)C(CC(COC(=O)CCC(=O)O)CC3OC4OC5(C)CCC6C(C)CCC(C3C)C46OO5)OC3OC4(C)CCC1C32OO4 (stereo not shown) [Compound 8a, bis-trioxane primary succinate monoester] is ____.
# output −4.77
